Molecular target: T1, human PD-L1 expressed on cells (human, UniProt Q9NZQ7 19-290)
T1 construct: whole, on cells; also called hPD-L1 expressed on HCC827; hPD-L1 on MC38/hPD-L1 cells
T1 sequence (Q9NZQ7 19-290): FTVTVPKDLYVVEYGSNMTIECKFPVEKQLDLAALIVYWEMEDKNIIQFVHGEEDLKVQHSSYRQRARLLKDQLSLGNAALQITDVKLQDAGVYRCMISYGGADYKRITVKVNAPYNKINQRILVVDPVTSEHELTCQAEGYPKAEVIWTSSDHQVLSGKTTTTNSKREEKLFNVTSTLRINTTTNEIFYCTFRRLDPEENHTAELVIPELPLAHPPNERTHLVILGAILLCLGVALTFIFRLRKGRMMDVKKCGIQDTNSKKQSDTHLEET
Test: blocking FACS on HCC827 cells; blocked ligand: biotinylated hPD-1-N297A
outcome.measure: IC50 (read off the curve)

23A11-H3L5 CHO (antibody, V domains shown, CHO-produced counterpart of m16; also called 23A11-H3L5 produced in CHO cells) VH: QVQLVQSGAEVKKPGASVKLSCKASGYIFTTYWIHWVKQRPGQGLEWIGMIQPNSGGTKYNDQFKNRATLTVDKSISTAYMELSRLTSDDTAVYYCARGAGTVDYFDYWGQGTTLSISS VL: DIVLTQSPASLAVSVGQRATITCRASESVDIYGNSFMHWYQQKPGQAPKLLIYRASNLESGIPARFSGSGSRTDFTLTINPVEAQDTATYYCQQSNDDPYTFGGGTKLETK; ~0.05 µg/mL

Source: patent US20210009693A1
